All figures here come from ChEMBL document CHEMBL1201862.

biological target: Paired box protein Pax-8 (Homo sapiens, UniProt Q06710); assay: inhibitors of PAX8-driven TPO luciferase reporter, dose response, RMG-I cells, cherry-pick (AID 687027); type: functional, cell-based;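 also: luciferase reporter driven by Pax8 target thyroperoxidase promoter measured by SteadyGlo luminescence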
Sequence (Q06710 whole entry): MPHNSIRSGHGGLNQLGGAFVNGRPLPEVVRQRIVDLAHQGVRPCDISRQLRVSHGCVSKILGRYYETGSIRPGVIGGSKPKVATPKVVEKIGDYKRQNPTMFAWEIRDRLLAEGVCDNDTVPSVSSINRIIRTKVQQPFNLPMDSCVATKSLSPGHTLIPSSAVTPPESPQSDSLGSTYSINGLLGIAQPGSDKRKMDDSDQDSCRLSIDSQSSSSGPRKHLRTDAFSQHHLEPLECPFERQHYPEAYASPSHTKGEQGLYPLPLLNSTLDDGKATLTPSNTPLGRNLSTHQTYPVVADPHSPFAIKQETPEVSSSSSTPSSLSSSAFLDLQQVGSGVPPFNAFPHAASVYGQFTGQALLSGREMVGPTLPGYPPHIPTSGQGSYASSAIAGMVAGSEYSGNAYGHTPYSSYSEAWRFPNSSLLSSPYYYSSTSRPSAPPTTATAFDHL
Calls of active or inactive are those of the source. No rule for the calls is given here.
measured endpoint: AC50

C[C@@H]1CN([C@@H](C)CO)C(=O)Cc2cc(NC(=O)Nc3ccc(C(F)(F)F)cc3)ccc2O[C@H]1CN(C)Cc1ccc(Cl)c(Cl)c1: 11.1 µM (active)
N#C[C@H]1[C@@H](c2ccc(C#Cc3ccccc3F)cc2)[C@@H](CO)N1C(=O)C1CCCCC1: 3.09 µM (active)
COc1cccc(S(=O)(=O)N(C)C[C@@H]2OCc3ccccc3-c3ccccc3C(=O)N([C@@H](C)CO)C[C@@H]2C)c1: 15.9 µM (active)

What value of AC50 has been recorded for this entry: C[C@]12CCC3C(CCC4=CC(O)CC[C@@]43/C=N/O)C1(O)CCC2C1=CC(=O)OC1 (some centres undefined) 2.22 µM (active)
